The values you see were collected from patent US11806350B2.

- target-under-test: Human recombinant adenosine A1 receptors (Homo sapiens, UniProt P30542)
- Sequence (P30542 1-326): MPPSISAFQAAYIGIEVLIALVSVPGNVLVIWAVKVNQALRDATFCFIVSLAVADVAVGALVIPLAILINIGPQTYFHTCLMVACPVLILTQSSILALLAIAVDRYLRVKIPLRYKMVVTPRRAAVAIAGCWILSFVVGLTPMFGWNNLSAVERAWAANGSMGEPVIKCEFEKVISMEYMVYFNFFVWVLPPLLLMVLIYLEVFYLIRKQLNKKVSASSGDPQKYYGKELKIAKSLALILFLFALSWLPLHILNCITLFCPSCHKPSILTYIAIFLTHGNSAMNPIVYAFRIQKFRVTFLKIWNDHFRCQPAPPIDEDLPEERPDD
- experiment-summary: Human adenosine A1 receptor binding assay ([3H]DPCPX)
- measurement-context: membranes of CHO-K1 cells, 1 nM [3H]DPCPX, 90 minutes at 25° C.; read-out: hAl Ki
pKi: −log10 of the molar value.
Please provide measured pKi for the entries that follow.

N#Cc1ccnc(-c2nc(N)nc3c2cnn3Cc2c(F)cccc2F)c1; 6.00 to 7.00

Below is a list of molecules. For each, state its recorded pKi.
1. Cc1cc(Cn2ncc3c(-c4cc(C#N)ccn4)nc(N)nc32)ccc1N
2. Cc1cc(Cn2ncc3c(-c4cncc(C#N)c4)nc(N)nc32)ccc1N
3. N#Cc1cc(-c2nc(N)nc3c2cnn3Cc2c(F)cccc2F)ccn1
4. N#Cc1cncc(-c2nc(N)nc3c2cnn3Cc2ccc(N)cc2F)c1

## Output
1: 6.00 to 7.00; 2: < 5.00; 3: 5.00 to 6.00; 4: < 5.00
